B1: scFv; the commonest letter at each place (parent)
chain 1: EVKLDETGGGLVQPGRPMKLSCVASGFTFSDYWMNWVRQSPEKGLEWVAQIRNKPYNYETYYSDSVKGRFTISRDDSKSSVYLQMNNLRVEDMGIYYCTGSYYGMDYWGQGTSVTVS
chain 2: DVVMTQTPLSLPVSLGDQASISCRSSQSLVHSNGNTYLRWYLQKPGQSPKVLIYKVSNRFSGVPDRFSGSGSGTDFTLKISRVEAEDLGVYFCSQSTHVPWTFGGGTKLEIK

Variants of: B1
Test: Kd (Tite-Seq)
Settings: with fluorescein; format: scFv 4-4-20, heavy + light
pKd: −log10 of the molar value.
Outcome measure: pKd

Answered cases to consult:
# Mutant id, Outcome measure, Experimental value
measured = [
    ("chain 1 D31L", "pKd", 8.20),
    ("chain 1 Y103Q M105G", "pKd", "≤ 5.00"),
    ("chain 1 Y107A G109M", "pKd", "≤ 5.00"),
    ("chain 1 F29D W33V", "pKd", "≤ 5.00"),
    ("chain 1 F29Q Y32E W33S", "pKd", "≤ 5.00"),
    ("chain 1 Y103S W108R", "pKd", "≤ 5.00"),
    ("chain 1 M34K W36F", "pKd", "≤ 5.00"),
    ("chain 1 Y102A D106L", "pKd", "≤ 5.00"),
    ("chain 1 F29R V37E", "pKd", 5.97),
    ("chain 1 G100Q", "pKd", "≤ 5.00"),
]

**Q:** Which pKd value belongs to chain 1 F29T M34S ?
**A:** ≤ 5.00

**Q:** Repeat with chain 1 Y32K M34C
**A:** ≤ 5.00

**Q:** Repeat with chain 1 G104V D106P
**A:** ≤ 5.00

**Q:** Repeat with chain 1 D31K Y32G
**A:** 7.14

**Q:** Repeat with chain 1 M34E
**A:** ≤ 5.00
